Each entry below carries its reported normalized growth.
Test: chemical genetic growth profiling, strain panel (AID 1159580);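 note: tested at 20 µM; growth read once vehicle control cultures reached saturation at 30 °C; 1 = growth at the plate median or of vehicle wells; lower values mean less growth of the strain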
Settings: S. cerevisiae deletion strains, growth OD, locus YPR119W, strain clb2, active compounds read low
About 2,000 (36%) of roughly 5,500 compounds were called active. Not shown: some 18% with an inconclusive outcome. Some of the results follow.
MEASURED_ENDPOINT: normalized growth

* CC(=O)OC1CC(OC(C)=O)C2(C)C(CC(OC(C)=O)C3(C)C2CCC2(C)C(c4ccoc4)OC(=O)C4OC423)C1(C)C (centres undefined) | 0.992
* COc1ccc(-c2cc(=O)c3c(OC)cc(OC)cc3o2)cc1 | 1
* COc1cc(C)c2c(=O)cc(-c3ccccc3)oc2c1 | 0.973
* COC[C@]12CN(C=O)C3[C@@H]4[C@H](OC)C1[C@]3(C1CC3(O)C(OC)C(O)C4(OC(C)=O)C1C3OC(=O)c1ccccc1)[C@@H](OC)C[C@H]2O (some centres undefined) | 1

* * *

Test: chemical genetic growth profiling, strain panel (AID 1159580)
Conditions: S. cerevisiae deletion strains, growth OD, locus YKL190W, strain CNB1, active compounds read low
Hit rate of the full screen: of about 5,500 compounds, about 2,000 (36%) were called active. Another 18% or so got no clear call; they are omitted. The list shows a part of the results.
// returns N unless normalized growth is strictly below 1, in which case Y

* O=NN(CCCl)C(=O)NCCCl | N
* CC12CCC3C(CC[C@H]4CC5(CCC34C)OCCO5)C1CCC2O (stereo partly specified) | N
* c1ccc(-c2csc(-c3cccnc3)n2)cc1 | Y
* Oc1c(Cl)cc(Cl)c(Cl)c1Cc1c(O)c(Cl)cc(Cl)c1Cl | Y
* O=c1oc2ccccc2cc1[N+](=O)[O-] | Y

* * *

Assay: chemical genetic growth profiling, strain panel (AID 1159580)
Settings: S. cerevisiae deletion strains, growth OD, locus YBR279W, strain paf1
Hit rate of the full screen: of about 5,500 compounds, about 2,000 (36%) were called active. Another 18% or so got no clear call; they are omitted. Cut-off read from the data, not from the text of the source: active = normalized growth mostly below about 0.91 (no sharp cut-off); inconclusive = no clear call, values can overlap the other calls; inactive = mostly above about 0.92. This is one part of the list.
Labels: active, inactive

- CC(=O)O[C@]1(C)CC[C@@]23CC1C(C)(C)[C@@H]2CC[C@H]3C: inactive
- C[C@@H]1CC[C@H]2C(C)(C)C3CC12CC[C@@]3(C)O (stereo partly drawn): active
- C[C@H]1C[C@@H](O)[C@]2(O)[C@@]13CC(=O)OC[C@@]2(C)[C@](C)(O)C(=O)C3: inactive

* * *

normalized growth values for the compounds below.
Test: chemical genetic growth profiling, strain panel (AID 1159580)
Conditions: S. cerevisiae deletion strains, growth OD, locus YOL147C, strain pex11, active compounds read low
Out of some 5,500 compounds screened, about 2,000 (36%) were called active. Roughly 18% stayed inconclusive and do not appear here. This is one part of the list.
MEASURED_ENDPOINT: normalized growth

* NCCCCNCCCN | 0.982
* O=C1CCCN1CC#CCN1CCCC1 | 1.01
* O=C(O)COc1ccc(Cl)cc1Cl | 1.02
* NC1(C(=O)O)CC1 | 1
* NC1(C(=O)O)CCC1 | 0.99
* O=c1[nH]c(=O)n(C2C[C@H](O)[C@@H](CO)O2)cc1C(F)(F)F (stereo partly drawn) | 0.974
* NCCCNCCSP(=O)(O)O | 0.988
* NC1(C(=O)O)CCCC1 | 0.993

* * *

Assay: chemical genetic growth profiling, strain panel (AID 1159580)
Conditions: S. cerevisiae deletion strains, growth OD, locus YJR066W, strain TOR1, active compounds read low
Among all 5,500 compounds or so, about 2,000 (36%) were called active. About 18% were inconclusive and are not listed. The list shows a part of the results.
MEASURED_ENDPOINT: normalized growth

- COc1cc2nc(N3CCN(C(=O)C4COc5ccccc5O4)CC3)nc(N)c2cc1OC (stereo unspecified): 0.968
- Clc1ccccc1-c1csc(-c2cccnc2)n1: 0.67
- CC1OC(O[C@H]2/C=C/C=C/C=C/C=C/C=C/C=C/C=C/[C@H](C)[C@@H](O)[C@@H](C)[C@H](C)OC(=O)CC(O)CC(O)CCC(O)C(O)CC(O)C[C@]3(O)C[C@H](O)C(C(=O)O)C(C2)O3)C(O)[C@H](N)C1O (stereo partly specified): 1.01
- C[C@H]1C[C@@H](O)[C@]2(O)[C@@]13CC(=O)OC[C@@]2(C)[C@](C)(O)C(=O)C3: 0.995
- Brc1ccc(-c2csc(-c3cccnc3)n2)cc1: 0.545
- Clc1ccccc1-c1csc(-c2ccncc2)n1: 1.02

* * *

Assay: chemical genetic growth profiling, strain panel (AID 1159580);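 note: tested at 20 µM; growth read once vehicle control cultures reached saturation at 30 °C; 1 = growth at the plate median or of vehicle wells; lower values mean less growth of the strain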
Details: S. cerevisiae deletion strains, growth OD, locus YOR083W, strain WHI5 (second series), active compounds read low
The whole screen tested about 5,500 compounds, of which about 2,000 (36%) were called active. Roughly 18% stayed inconclusive and do not appear here. Some of the results follow.
Rule: measured normalized growth below 1 gets t; anything equal to or greater than 1 gets f.

• COc1cc2c(CCNC(C)=O)c[nH]c2cc1Cl = f
• CN(C)CCC(c1ccccc1)c1ccccn1 (centres undefined) = f
• Cc1oncc1C(=O)Nc1ccc(C(F)(F)F)cc1 = t
• Clc1cnc(Oc2ccc(Oc3ncc(Cl)cc3Cl)cc2)c(Cl)c1 = f
• O=c1[nH]c2cc(C(F)(F)F)ccc2n1-c1cc(C(F)(F)F)ccc1O = t
• Clc1ccc(C(c2ccc(Cl)cc2)n2cc[n+](CC(OCc3ccc(Cl)cc3Cl)c3ccc(Cl)cc3Cl)c2)cc1 (centres undefined) = t
• CCCCCCCCCCC/C=C\C(C)(C)/C=C\CCCC(=O)O = t
• NC1(C(=O)O)CC1 = t

* * *

Experiment: chemical genetic growth profiling, strain panel (AID 1159580);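 note: tested at 20 µM; growth read once vehicle control cultures reached saturation at 30 °C; 1 = growth at the plate median or of vehicle wells; lower values mean less growth of the strain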
Conditions: S. cerevisiae deletion strains, growth OD, locus YIL066C, strain RNR3, active compounds read low
About 2,000 (36%) of roughly 5,500 compounds were called active. Not shown: some 18% with an inconclusive outcome. Some of the results follow.
Measured normalized growth accompanies every entry in the list below.
MEASURED_ENDPOINT: normalized growth

* COC[C@]12CN(C=O)C3[C@@H]4[C@H](OC)C1[C@]3(C1CC3(O)C(OC)C(O)C4(OC(C)=O)C1C3OC(=O)c1ccccc1)[C@@H](OC)C[C@H]2O (some centres undefined) | 1.01
* COc1ccc2c(c1)OCC(Cc1ccc(OC)c(O)c1)C2=O (centres undefined) | 0.975
* CCCNC(=O)NS(=O)(=O)c1ccc(Cl)cc1 | 0.998
* CCC(=O)OC1[C@@H]2CC3=C4CC(=O)O[C@@H](c5ccoc5)[C@]4(C)CCC3[C@@](C)(C2=O)[C@@H](CC(=O)OC)C1(C)C (some centres undefined) | 0.999
* COc1ccc2c(c1)OCC(Cc1ccc(OC)c(OC)c1)C2=O (centres undefined) | 0.915
* COc1cc2c(cc1OC)C1(O)C(=O)c3ccc(O)c(C(=O)O)c3OC1CO2 (centres undefined) | 1.02
* c1ccc2c(CC3=NCCN3)cccc2c1 | 1.01
* COc1ccc2c(c1)OCC(Cc1ccc(OC)c(OC(C)=O)c1)C2=O (centres undefined) | 0.982
* CC(=O)OCC(=O)[C@@]1(O)CCC2C3CCC4=CC(=O)C=CC4(C)C3[C@@H](O)C[C@@]21C (some centres undefined) | 1.01

* * *

Assay: chemical genetic growth profiling, strain panel (AID 1159580);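 note: tested at 20 µM; growth read once vehicle control cultures reached saturation at 30 °C; 1 = growth at the plate median or of vehicle wells; lower values mean less growth of the strain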
Details: S. cerevisiae deletion strains, growth OD, locus YOR080W, strain dia2, active compounds read low
About 2,000 (36%) of roughly 5,500 compounds were called active. Another 18% or so got no clear call; they are omitted. Some of the results follow. Where a SMILES comes first, the peptide text is derived from it.
Listed next: entries and their corresponding normalized growth.
MEASURED_ENDPOINT: normalized growth

• CC1OC(O[C@H]2/C=C/C=C/C=C/C=C/C=C/C=C/C=C/[C@H](C)[C@@H](O)[C@@H](C)[C@H](C)OC(=O)CC(O)CC(O)CCC(O)C(O)CC(O)C[C@]3(O)C[C@H](O)C(C(=O)O)C(C2)O3)C(O)[C@H](N)C1O (stereo partly drawn) = 0.389
• O=C(O)C1CCCNC1 (stereo not drawn) = 1.02
• c1ccc2c(CC3=NCCN3)cccc2c1 = 0.965
• Clc1ccccc1CN1CCc2sccc2C1 = 1.01
• C[C@@H]1CC2C3CCC4=CC(=O)C=C[C@]4(C)[C@@]3(F)[C@@H](O)C[C@]2(C)[C@@]1(O)C(=O)CO (stereo partly drawn) = 0.948
• COc1cc(C)c2c(=O)cc(-c3ccccc3)oc2c1 = 0.943
• CC1C/C=C/C=C/C=C/C=C/C(O[C@@H]2O[C@H](C)[C@@H](O)[C@H](N)[C@@H]2O)CC2OC(O)(CC(O)CC3OC3/C=C/C(=O)O1)CC(O)C2C(=O)O (stereo partly drawn) = 1
• O=C(O)COc1ccc(Cl)cc1Cl = 0.996
• CC(=O)N[C@@H](CC(=O)O)C(=O)N[C@@H](CCC(=O)O)C(=O)O (Ac-Asp-Glu-OH) = 0.988
• COC1C=CC23c4cc5c(cc4CN(CC2O)[C@@H]3C1)OCO5 (stereo partly drawn) = 0.976
• CC1[C@H](C)OC(=O)CC(O)CC(O)CC(O)CCC(O)C(O)C[C@]2(O)CC(O)C(C(=O)O)C(CC(OC3O[C@H](C)[C@@H](O)[C@H](N)[C@@H]3O)/C=C/C=C/C=C/C=C/CC/C=C/C=C/[C@H](C)[C@H]1O)O2 (stereo partly drawn) = 0.826
• CC(=O)OC/C=C(\C)CC/C=C(\C)CC/C=C(\C)CC/C=C(\C)CC/C=C(\C)CC/C=C(\C)CC/C=C(\C)CC/C=C(\C)CCC=C(C)C = 0.978
• COP(=S)(OC)Oc1ccc([N+](=O)[O-])cc1 = 0.984
• CN1CCC[C@@H]1CCO[C@](C)(c1ccccc1)c1ccc(Cl)cc1 = 0.994
• NC(N)=NCCCCN=C(N)N = 1.01
• COP(=S)(OC)Oc1ccc(Sc2ccc(OP(=S)(OC)OC)cc2)cc1 = 1
• C1N2CN3CN1CN(C2)C3 = 0.994
• COC(=O)[C@@H]1OC(=O)C2OC23[C@@]1(C)CCC1[C@@]2(C)CCC(=O)C(C)(C)C2C[C@@H](OC(C)=O)[C@]13C (stereo partly drawn) = 1.01
